All figures here come from ChEMBL document CHEMBL1961873.

EXPERIMENTAL_TARGET: Serine/threonine-protein kinase Nek6 (Homo sapiens) (UniProt Q9HC98);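 also: values are the mean percent inhibition of NEK6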
Sequence (Q9HC98 whole entry): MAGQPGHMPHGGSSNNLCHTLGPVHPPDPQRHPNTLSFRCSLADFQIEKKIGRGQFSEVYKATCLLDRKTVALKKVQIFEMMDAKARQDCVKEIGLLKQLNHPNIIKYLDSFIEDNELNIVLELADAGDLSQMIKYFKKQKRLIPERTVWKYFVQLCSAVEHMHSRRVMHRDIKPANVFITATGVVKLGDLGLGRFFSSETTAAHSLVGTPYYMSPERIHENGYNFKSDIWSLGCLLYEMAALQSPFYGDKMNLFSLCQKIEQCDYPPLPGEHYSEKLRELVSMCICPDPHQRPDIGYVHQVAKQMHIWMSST
EXPERIMENTAL_PARAMETERS: at 0.1 µM
Exercise: state measured inhibition for each of the compounds provided.
The figure you give is taken to be in %; do not add the unit.

Req: Bench note: what inhibition did `COc1cc2c(cc1Nc1nc(Nc3ccsc3C(N)=O)c3cc[nH]c3n1)N(C(=O)CN(C)C)CCC2` show?
Resp: 1.52

Req: Item `NS(=O)(=O)c1ccc(N/C=C2\C(=O)Nc3ccc4ncsc4c32)cc1` has what recorded inhibition?
Resp: 1.42

Req: Which value of inhibition has been reported for `COc1cccc(-n2ncc3c(N/N=C/c4ccncc4)ncnc32)c1` in the records?
Resp: 4.03

Req: Field request: inhibition | item: `NC(=O)c1sc(-n2cnc3cc(C(F)(F)F)ccc32)cc1OCc1ccccc1Br`
Resp: -1.58

Req: Param item = `CCn1c(-c2nonc2N)nc2c(C#CC(C)(C)O)nc(O[C@@H](CN)c3ccccc3)cc21` ; retrieve measured inhibition.
Resp: 0.93

Req: Given the compound `Nc1nonc1-c1nc2cnccc2n1C1CCCCC1` , what is its reported inhibition?
Resp: 0.47

Req: Could you share which inhibition value was measured for `CCn1c(-c2nonc2N)nc2c(C#CCN)ncc(OCCCN)c21` ?
Resp: -0.99

Req: Can you look up the measured inhibition of `COc1cccc(COc2cc(-n3cnc4ccccc43)sc2C(N)=O)c1` for me?
Resp: 1.63

Req: May I ask what inhibition has been recorded for `Cc1cc(-c2ccco2)cc(C)c1/C=C/c1cncc(-c2nn[nH]n2)c1` ?
Resp: 0.53

Req: Name the reported inhibition value associated with the compound `COc1cc(C=NNc2ncnc3c2cnn3Cc2ccccc2)ccc1O`
Resp: -0.58
